Provenance of the data: ChEMBL document CHEMBL5346923

test-description: Toxicity in po dosed BABL/C mouse assessed as lethal dose measured upto 14 days
Type: organism-based
experimental-setup: in vivo, time < 14 day
readout-type: LD50 at 336 h

>  <mol-smiles>
C=C[C@]1(C)C[C@@H](OC(=O)CSc2cc[n+](CCCCCCC)cc2)[C@]2(C)[C@H](C)CC[C@]3(CCC(=O)[C@H]32)[C@@H](C)[C@@H]1O.[I-]

>  <reading>
879 mg/kg

$$$$

----------
We begin with a simple list: items and their reported MIC.
Tested on: Staphylococcus aureus
test-description: Antibacterial activity against methicillin-resistant Staphylococcus aureus ATCC 43300 assessed as inhibition of bacterial growth measured after 24 hrs by MH broth based assay
Format: functional
readout-type: MIC (µg/mL)

>  <mol-smiles>
C=C[C@]1(C)C[C@@H](OC(=O)CSc2cc[n+](CCCCCC(=O)O)cc2)[C@]2(C)[C@H](C)CC[C@]3(CCC(=O)[C@H]32)[C@@H](C)[C@@H]1O.[I-]

>  <reading>
16

$$$$
>  <mol-smiles>
C=C[C@]1(C)C[C@@H](OC(=O)CSc2cc[n+](CCCCCCCCCC)cc2)[C@]2(C)[C@H](C)CC[C@]3(CCC(=O)[C@H]32)[C@@H](C)[C@@H]1O.[I-]

>  <reading>
1

$$$$
>  <mol-smiles>
C#CCC[n+]1ccc(SCC(=O)O[C@@H]2C[C@@](C)(C=C)[C@@H](O)[C@H](C)[C@]34CCC(=O)[C@H]3[C@@]2(C)[C@H](C)CC4)cc1.[I-]

>  <reading>
0.5

$$$$

----------
Tested on: Proteus
test-description: Antibacterial activity against Proteus CMCC (B) 49027 assessed as inhibition of bacterial growth measured after 24 hrs by MH broth based assay
Type: functional
We begin with a simple list: items and their reported MIC.
readout-type: MIC

>  <mol-smiles>
C=C[C@]1(C)C[C@@H](OC(=O)CSc2cc[n+](Cc3ccc(C(=O)OC(C)(C)C)cc3)cc2)[C@]2(C)[C@H](C)CC[C@]3(CCC(=O)[C@H]32)[C@@H](C)[C@@H]1O.[I-]

>  <readout-type>
MIC

>  <reading>
> 64 µg/mL

$$$$
>  <mol-smiles>
C=C[C@]1(C)C[C@@H](OC(=O)CSc2cc[n+](CCCC)cc2)[C@]2(C)[C@H](C)CC[C@]3(CCC(=O)[C@H]32)[C@@H](C)[C@@H]1O.[Br-]

>  <readout-type>
MIC

>  <reading>
> 64 µg/mL

$$$$
>  <mol-smiles>
C=C[C@]1(C)C[C@@H](OC(=O)CSc2cc[n+](COC)cc2)[C@]2(C)[C@H](C)CC[C@]3(CCC(=O)[C@H]32)[C@@H](C)[C@@H]1O.[I-]

>  <readout-type>
MIC

>  <reading>
> 64 µg/mL

$$$$

----------
Tested on: Staphylococcus aureus
test-description: Antibacterial activity against methicillin-resistant Staphylococcus aureus ATCC 43300 assessed as inhibition of bacterial growth measured after 24 hrs by MH broth based assay
Format: functional
Rule for this label: yes (1) means MIC is less than 0.5 µg/mL; no (0) means MIC is at least 0.5 µg/mL.

>  <compound>
C=C[C@]1(C)C[C@@H](OC(=O)CSc2cc[n+](CC(=O)N3CCOCC3)cc2)[C@]2(C)[C@H](C)CC[C@]3(CCC(=O)[C@H]32)[C@@H](C)[C@@H]1O.[I-]

>  <class-assignment>
no (0)

$$$$
>  <compound>
C=C[C@]1(C)C[C@@H](OC(=O)CSc2cc[n+](CC(=O)N3CCC(CO)CC3)cc2)[C@]2(C)[C@H](C)CC[C@]3(CCC(=O)[C@H]32)[C@@H](C)[C@@H]1O.[I-]

>  <class-assignment>
no (0)

$$$$
>  <compound>
C#CC[n+]1ccc(SCC(=O)O[C@@H]2C[C@@](C)(C=C)[C@@H](O)[C@H](C)[C@]34CCC(=O)[C@H]3[C@@]2(C)[C@H](C)CC4)cc1.[I-]

>  <class-assignment>
yes (1)

$$$$
>  <compound>
C=C[C@]1(C)C[C@@H](OC(=O)CSc2cc[n+](CC(=O)O)cc2)[C@]2(C)[C@H](C)CC[C@]3(CCC(=O)[C@H]32)[C@@H](C)[C@@H]1O.[I-]

>  <class-assignment>
no (0)

$$$$
>  <compound>
C=C[C@]1(C)C[C@@H](OC(=O)CSc2cc[n+](COC)cc2)[C@]2(C)[C@H](C)CC[C@]3(CCC(=O)[C@H]32)[C@@H](C)[C@@H]1O.[I-]

>  <class-assignment>
yes (1)

$$$$
>  <compound>
C=C[C@]1(C)C[C@@H](OC(=O)CSc2cc[n+](CC(=O)N(Cc3ccccc3)Cc3ccccc3)cc2)[C@]2(C)[C@H](C)CC[C@]3(CCC(=O)[C@H]32)[C@@H](C)[C@@H]1O.[I-]

>  <class-assignment>
yes (1)

$$$$
>  <compound>
C=C[C@]1(C)C[C@@H](OC(=O)CSc2cc[n+](CCCCCCCCCCCC)cc2)[C@]2(C)[C@H](C)CC[C@]3(CCC(=O)[C@H]32)[C@@H](C)[C@@H]1O.[I-]

>  <class-assignment>
no (0)

$$$$
>  <compound>
C=CC[n+]1ccc(SCC(=O)O[C@@H]2C[C@@](C)(C=C)[C@@H](O)[C@H](C)[C@]34CCC(=O)[C@H]3[C@@]2(C)[C@H](C)CC4)cc1.[I-]

>  <class-assignment>
no (0)

$$$$
>  <compound>
C=C[C@]1(C)C[C@@H](OC(=O)CSc2cc[n+](CC(=O)N3CCCC3)cc2)[C@]2(C)[C@H](C)CC[C@]3(CCC(=O)[C@H]32)[C@@H](C)[C@@H]1O.[I-]

>  <class-assignment>
no (0)

$$$$
>  <compound>
C=C[C@]1(C)C[C@@H](OC(=O)CSc2cc[n+](CC3CCCO3)cc2)[C@]2(C)[C@H](C)CC[C@]3(CCC(=O)[C@H]32)[C@@H](C)[C@@H]1O.[I-] (stereo partly specified)

>  <class-assignment>
no (0)

$$$$
>  <compound>
C=C[C@]1(C)C[C@@H](OC(=O)CSc2cc[n+](CCO)cc2)[C@]2(C)[C@H](C)CC[C@]3(CCC(=O)[C@H]32)[C@@H](C)[C@@H]1O.[I-]

>  <class-assignment>
no (0)

$$$$

----------
We begin with a simple list: items and their reported MIC.
Test system: Enterococcus
test-description: Antibacterial activity against vancomycin-resistant Enterococcus ATCC 700221 assessed as inhibition of bacterial growth measured after 24 hrs by MH broth based assay
Format: functional

>  <mol-smiles>
C=C[C@]1(C)C[C@@H](OC(=O)CSCCN(CC)CC)[C@]2(C)[C@H](C)CC[C@]3(CCC(=O)[C@H]32)[C@@H](C)[C@@H]1O

>  <MIC (µg/mL)>
64

$$$$
>  <mol-smiles>
C=C[C@]1(C)C[C@@H](OC(=O)CSc2cc[n+](Cc3ccc(-c4ccccc4C#N)cc3)cc2)[C@]2(C)[C@H](C)CC[C@]3(CCC(=O)[C@H]32)[C@@H](C)[C@@H]1O.[I-]

>  <MIC (µg/mL)>
32

$$$$
>  <mol-smiles>
C#CCC[n+]1ccc(SCC(=O)O[C@@H]2C[C@@](C)(C=C)[C@@H](O)[C@H](C)[C@]34CCC(=O)[C@H]3[C@@]2(C)[C@H](C)CC4)cc1.[I-]

>  <MIC (µg/mL)>
64

$$$$
>  <mol-smiles>
C=C[C@]1(C)C[C@@H](OC(=O)CSc2cc[n+](CC(=O)N3CCS(=O)(=O)CC3)cc2)[C@]2(C)[C@H](C)CC[C@]3(CCC(=O)[C@H]32)[C@@H](C)[C@@H]1O.[I-]

>  <MIC (µg/mL)>
64

$$$$
